System: H929 multiple myeloma tumour line
assayExplanation: In vitro cytotoxicity, Microculture Tetrazolium Assay
Format: cell-based
testSettings: Homo sapiens, NCI-H929, 48 h, H929 cells, 48 hours exposure, MTT; read-out: IC50 (μM) MTT H929
Measured IC50, listed per entry.
Record the result as number plus unit.

Consider the following illustrative entries.
Cc1c(-c2c(-c3ccc(F)cc3)sc3ncnc(OC(Cc4ccccc4OCc4ccc(F)cn4)C(=O)O)c23)ccc(OCCN2CCN(C)CC2)c1Cl (stereo not drawn) [Example 10]    0.275 µM
COc1ccc(COc2ccc(-c3sc4ncnc(OC(Cc5ccccc5OCc5ccnc(-c6ccccc6OC)n5)C(=O)O)c4c3-c3ccc(OCCN4CCN(C)CC4)c(Cl)c3C)cc2)cc1 (stereo not drawn) [Example 770]    0.01 µM
Cc1c(-c2c(-c3ccco3)sc3ncnc(OC(Cc4ccccc4OCc4cccnc4)C(=O)O)c23)ccc(OCCN2CCN(C)CC2)c1Cl (stereo not drawn) [Example 242]    0.09 µM
Cc1c(-c2c(-c3ccco3)sc3ncnc(OC(Cc4ccccc4OCCOCc4ccccc4)C(=O)O)c23)ccc(OCCN2CCN(C)CC2)c1Cl (stereo not drawn) [Example 292]    0.192 µM
COc1nccc(COc2ccccc2CC(Oc2ncnc3sc(-c4ccco4)c(-c4ccc(OCCN5CCN(C)CC5)c(Cl)c4C)c23)C(=O)O)n1 (stereo not drawn) [Example 255]    0.018 µM

[Q] Using the record for Cc1c(-c2c(-c3ccc(F)o3)sc3ncnc(OC(Cc4ccc(F)cc4OCc4cnccn4)C(=O)O)c23)ccc(OCCN2CCN(C)CC2)c1Cl (stereo not drawn) [Example 691] , report its IC50.
[A] 0.037 µM

[Q] Report IC50 for Cc1c(-c2c(-c3ccc(F)o3)sc3ncnc(OC(Cc4ccccc4OCc4ccnn4CC4CC4)C(=O)O)c23)ccc(OCCN2CCN(C)CC2)c1Cl (stereo not drawn) [Example 186] please.
[A] 0.013 µM

[Q] Name the recorded IC50 for CCCCn1nccc1COc1ccccc1CC(Oc1ncnc2sc(-c3ccn(C)n3)c(-c3ccc(OCCN4CCN(C)CC4)c(Cl)c3C)c12)C(=O)O (stereo not drawn) [Example 610] .
[A] 0.091 µM

[Q] Record request: IC50 value, item CCCCn1nccc1COc1ccccc1CC(Oc1ncnc2sc(-c3ccc(OC)nc3)c(-c3ccc(OCCN4CCN(C)CC4)c(Cl)c3C)c12)C(=O)O (stereo not drawn) [Example 608]
[A] 0.021 µM

[Q] Bench note: what IC50 did CNC(=O)COc1ccccc1CC(Oc1ncnc2sc(-c3ccc(F)o3)c(-c3ccc(OCCN4CCN(C)CC4)c(Cl)c3C)c12)C(=O)O (stereo not drawn) [Example 151] show?
[A] 0.309 µM

[Q] Field request: IC50 | item: CC#Cc1sc2ncnc(OC(Cc3ccccc3OC)C(=O)O)c2c1-c1ccc(OCCC2CCN(C)CC2)c(Cl)c1C (stereo not drawn) [Example 465]
[A] 2.06 µM

[Q] Query: IC50; subject: CC#Cc1sc2ncnc(OC(Cc3ccccc3OCc3ccnc(CCOC)n3)C(=O)O)c2c1-c1ccc(OCCN2CCN(C)CC2)c(Cl)c1C (stereo not drawn) [Example 484]
[A] 0.014 µM

[Q] Please report the recorded IC50 for COc1ccccc1CC(Oc1ncnc2sc(-c3cc(F)cc(Cl)c3)c(-c3ccc(OCCN4CCN(C)CC4)c(Cl)c3C)c12)C(=O)O (stereo not drawn) [Example 526] .
[A] 0.835 µM

[Q] Given Cc1c(-c2c(-c3ccco3)sc3ncnc(OC(Cc4ccccc4OC4CCCC4)C(=O)O)c23)ccc(OCCN2CCN(C)CC2)c1Cl (stereo not drawn) [Example 212] , state its recorded IC50.
[A] 0.616 µM

These measurements were taken from patent US9670227B2.
